Recorded values, source ChEMBL document CHEMBL3227978.

tested on: Mus musculus; test: Antidepressant activity in po dosed ICEM:CET (SPF Caw) mouse assessed as antagonism of reserpine-induced blepharospasm administered via gavage 30 mins before reserpine challenge measured 1 hr after reserpine treatment; assay type: functional; conditions: Mus musculus, ICEM:CET(SPF Caw), po; read-out: ED50
ED50 reference
PROPERTY: ED50

[[record]]
compound = "CNCC1CCN1C1c2ccccc2CCc2ccccc21 (configuration not stated)"
property = "ED50"
readout_value = "> 25 mg/kg"

[[record]]
compound = "CNC1CN(C2c3ccccc3COc3ccc(OC)cc32)C1 (configuration not stated)"
property = "ED50"
readout_value = "> 25 mg/kg"

[[record]]
compound = "CCNC1CN(C2c3ccccc3CCc3ccccc32)C1"
property = "ED50"
readout_value = "10 mg/kg"

[[record]]
compound = "CN(C)C1CN(C2c3ccccc3COc3ccccc32)C1 (configuration not stated)"
property = "ED50"
readout_value = "5.6 mg/kg"

[[record]]
compound = "c1ccc2c(c1)CCc1ccccc1C2N1CCNCC1"
property = "ED50"
readout_value = "24 mg/kg"

[[record]]
compound = "CNC1CN(C2c3ccccc3CSc3ccccc32)C1 (configuration not stated)"
property = "ED50"
readout_value = "12 mg/kg"

[[record]]
compound = "CNC1CN(C2CCCCc3ccccc32)C1 (configuration not stated)"
property = "ED50"
readout_value = "> 25 mg/kg"


###

system: Mus musculus; experiment: Antidepressant activity in po dosed ICEM:CET (SPF Caw) mouse assessed as antagonism of reserpine-induced blepharospasm administered via gavage 30 mins before reserpine challenge measured 1 hr after reserpine treatment; assay type: functional; conditions: Mus musculus, ICEM:CET(SPF Caw), po; read-out: ED50
PROPERTY: log10 ED50 (log10 of the value in mg/kg)

[[record]]
compound = "CNC1CN(C2c3ccccc3CSc3ccc(OC)cc32)C1 (stereo not drawn)"
property = "log10 ED50"
readout_value = 1.34

[[record]]
compound = "CN(C)CCCN1c2ccccc2CCc2ccccc21.Cl [IMIPRAMINE HYDROCHLORIDE]"
property = "log10 ED50"
readout_value = 0.20

[[record]]
compound = "CN(C)C1CN(C2c3ccccc3CCc3ccccc32)C1"
property = "log10 ED50"
readout_value = 0.85

[[record]]
compound = "CN(C)C1CN(C2c3ccccc3CCc3ccc(Cl)cc32)C1 (stereo not drawn)"
property = "log10 ED50"
readout_value = 1.10

[[record]]
compound = "CNC1CN(C2c3ccccc3COc3ccccc32)C1.O=C(O)/C=C/C(=O)O (single isomer, unassigned; (+))"
property = "log10 ED50"
readout_value = 0.00

[[record]]
compound = "CNC1CN(C2c3ccccc3CCc3ccccc32)C1C (stereo not drawn)"
property = "log10 ED50"
readout_value = 0.95

[[record]]
compound = "CNC1CN(C2c3ccccc3C3(CC3)c3ccccc32)C1"
property = "log10 ED50"
readout_value = 0.64

[[record]]
compound = "CC(C)NC1CN(C2c3ccccc3CCc3ccccc32)C1"
property = "log10 ED50"
readout_value = 0.81


###

assay: Orientative acute toxicity in po dosed ICEM:CET (SPF Caw) mouse administered via gavage measured for 60 mins after drug dosing by Irwin's test; type: organism-based; conditions: ICEM:CET (SPF Caw), in vivo
PROPERTY: LD50 at 1 h (mg/kg)

[[record]]
molecule = "CN(C(N)=O)C1CN(C2c3ccccc3CCc3ccccc32)C1"
result_modifier = "="
readout_value = 400

[[record]]
molecule = "CNC1CN(C2c3ccccc3CSc3ccccc32)C1 (centres undefined)"
result_modifier = "="
readout_value = 200

[[record]]
molecule = "CC(Cc1ccccc1)NC1CN(C2c3ccccc3CCc3ccccc32)C1 (centres undefined)"
result_modifier = ">"
readout_value = 800

[[record]]
molecule = "COc1ccc2c(c1)C(N1CC(N(C)C)C1)c1ccccc1CO2 (centres undefined)"
result_modifier = "="
readout_value = 400

[[record]]
molecule = "CN(C)C1CN(C2c3ccccc3CCc3ccccc32)C1"
result_modifier = "="
readout_value = 400

[[record]]
molecule = "CCNC1CN(C2c3ccccc3CCc3ccccc32)C1"
result_modifier = "="
readout_value = 200

[[record]]
molecule = "CC(C)NC1CN(C2c3ccccc3COc3ccccc32)C1 (centres undefined)"
result_modifier = "="
readout_value = 200

[[record]]
molecule = "OCCN1CCN(C2CN(C3c4ccccc4CCc4ccccc43)C2)CC1"
result_modifier = "="
readout_value = 400

[[record]]
molecule = "C#CCN(CC#C)C1CN(C2c3ccccc3CCc3ccccc32)C1"
result_modifier = ">"
readout_value = 800

[[record]]
molecule = "CN(C)CCC=C1c2ccccc2CCc2ccccc21.Cl [AMITRIPTYLINE HYDROCHLORIDE]"
result_modifier = "="
readout_value = 100

[[record]]
molecule = "C#CC(C)(C)NC1CN(C2c3ccccc3CCc3ccccc32)C1"
result_modifier = ">"
readout_value = 800

[[record]]
molecule = "c1ccc2c(c1)CCc1ccccc1C2N1CC(N2CCOCC2)C1"
result_modifier = ">"
readout_value = 800

[[record]]
molecule = "CNCC1CCN1C1c2ccccc2CCc2ccccc21 (centres undefined)"
result_modifier = ">"
readout_value = 800

[[record]]
molecule = "CN(C)CCCN1c2ccccc2CCc2ccccc21.Cl [IMIPRAMINE HYDROCHLORIDE]"
result_modifier = "="
readout_value = 200

[[record]]
molecule = "CNC1CN(C2c3ccccc3CCc3ccc(Cl)cc32)C1 (centres undefined)"
result_modifier = "="
readout_value = 400

[[record]]
molecule = "CNC1CN(C2c3ccccc3CSc3ccc(Cl)cc32)C1 (centres undefined)"
result_modifier = "="
readout_value = 400

[[record]]
molecule = "CNC1CN(C2c3ccccc3COc3ccc(OC)cc32)C1 (centres undefined)"
result_modifier = "="
readout_value = 200

[[record]]
molecule = "CNC1(C)CN(C2c3ccccc3CCc3ccccc32)C1"
result_modifier = "="
readout_value = 200

[[record]]
molecule = "c1ccc(CNC2CN(C3c4ccccc4CCc4ccccc43)C2)cc1"
result_modifier = "="
readout_value = 800

[[record]]
molecule = "CCNC1CN(C2c3ccccc3COc3ccccc32)C1 (centres undefined)"
result_modifier = "="
readout_value = 200

[[record]]
molecule = "CNCC1CN(C2c3ccccc3CCc3ccccc32)C1"
result_modifier = "="
readout_value = 200

[[record]]
molecule = "CC(=O)N(C)C1CN(C2c3ccccc3CCc3ccccc32)C1"
result_modifier = "="
readout_value = 400

[[record]]
molecule = "CNC1CCN(C2c3ccccc3CCc3ccccc32)C1 (centres undefined)"
result_modifier = "="
readout_value = 200

[[record]]
molecule = "CNC1CN(C2CCCCc3ccccc32)C1 (centres undefined)"
result_modifier = "="
readout_value = 400

